Tested on: MDA-MB-231
protocolDescription: Inhibition of epithelial growth factor-induced cell migration of human MDA-MB-231 cells pre-incubated for 24 hrs by cell invasion assay
Assay type: functional, cell-based
Please provide measured pIC50 for the entries that follow.
Value format note: pIC50 is -log10 of concentration (mol/L); just state the number.

Name the recorded pIC50 for O=c1cc(N2CCOCC2)oc2c(-c3ccccc3)cccc12 .
6.42

One more compound: C[C@@H]([C@H]1CC[C@H]2[C@@H]3CC[C@H]4C[C@@H](NC(=O)c5cccnc5)CC[C@]4(C)[C@H]3CC[C@]12C)N(C)C [EPIPACHYSAMINE B]
6.46

One more compound: CC(=O)O[C@@H]1C[C@]2(C)[C@@H]([C@H](C)N(C)C)[C@@H](O)C[C@H]2[C@@H]2CC[C@H]3[C@@H](O)[C@@H](N4C[C@H](C(C)C)C4=O)C[C@@H](OC(C)=O)[C@]3(C)[C@H]21
6.70

One more compound: CC(C)=C1CN([C@@H]2CC[C@@]3(C)[C@@H](CC[C@@H]4[C@@H]3CC[C@]3(C)[C@@H]([C@H](C)N(C)C)CC[C@@H]43)[C@H]2O)C1=O
7.15

One more compound: C/C=C1/C(=O)C[C@H]2[C@@H]3CC[C@H]4C[C@@H](N(C)C)CC[C@]4(C)[C@H]3CC[C@]12C
6.06
